System: ligated 6th instar Indian stick insects (Carausius morosus)
protocol notes: Carbohydrate-mobilization (hypertrehalosemic) in vivo assay
protocol conditions: before injection (0 min), 2 h after neck ligation; group later given 20 pmol peptide in 10 μl; 6th instar nymphs
Catalogue of substances with associated Hemolymph carbohydrates, 0 min

substance	Hemolymph carbohydrates, 0 min, mg/mL
[N-Ac]Ala-Leu-Thr-Phe-Thr-Pro-Asn-Trp-Gly-Thr amide [Carmo-HrTH-II: [N-Ac]Ala^1]	9.0
pGlu-Leu-Thr-Phe-Thr-Pro-Asn-Trp amide [Peram-CAH-II, naturally-occurring AKH octapeptide bioanalog, reference compound]	9.3
pGlu-Val-Asn-Phe-Thr-Pro-Asn-Trp-Gly-Thr amide [Rommi-CC, naturally-occurring AKH decapeptide bioanalog, reference compound]	8.0
pGlu-Leu-Thr-Phe-Thr-Pro-Ala-Trp-Gly-Thr amide [Ala^7-Carmo-HrTH-II]	11.3
